Recorded Cmax for the following compounds
- EXPERIMENTAL_PROTOCOL: Pharmacokinetic profile in mice (plasma, LC-MS/MS)
- CONDITION_LABEL: CD-1, mouse, plasma, po, 10 mg/kg
Provide the reading as a plain figure in nM.

**Q:** Identify measured Cmax corresponding to C[C@]12CC=C3C=C4CC[C@@H](N5C[C@H](O)[C@@H](O)C5)C[C@]45CC[C@]3(O5)[C@@H]1CC[C@@H]2c1ccc2ccncc2c1
**A:** 377

**Q:** Identify measured Cmax corresponding to C[C@]12CC=C3C=C4CC[C@@H](N5CC(N)C5)C[C@]45CC[C@]3(O5)[C@@H]1CC[C@@H]2c1ccc2ccncc2c1
**A:** 462

**Q:** Identify measured Cmax corresponding to C[C@]12CC=C3C=C4CC[C@@H](N5CC[C@@H](N)C5)C[C@]45CC[C@]3(O5)[C@@H]1CC[C@@H]2c1ccc2ccncc2c1
**A:** 218

More entries:
**Q:** Identify measured Cmax corresponding to C[C@]12CC=C3C=C4CC[C@@H](O)C[C@]45CC[C@]3(O5)[C@@H]1CC[C@@H]2c1ccc2ccncc2c1
**A:** 3870
